In this section we review reported inhibition values for a set of compounds.
target: Genome polyprotein (West Nile virus) (UniProt P06935); experiment: Inhibition of West Nile virus NS2B-NS3 protease expressed in Escherichia coli BL21 lambda (DE3) cells at 50 uM using Abz-Gly-Leu-Lys-Arg-Gly-Gly-3-(NO2)Tyr as substrate preincubated for 15 mins followed by substrate addition measured for 15 mins by fluorimetric analysis relative to control
Sequence (P06935 whole entry): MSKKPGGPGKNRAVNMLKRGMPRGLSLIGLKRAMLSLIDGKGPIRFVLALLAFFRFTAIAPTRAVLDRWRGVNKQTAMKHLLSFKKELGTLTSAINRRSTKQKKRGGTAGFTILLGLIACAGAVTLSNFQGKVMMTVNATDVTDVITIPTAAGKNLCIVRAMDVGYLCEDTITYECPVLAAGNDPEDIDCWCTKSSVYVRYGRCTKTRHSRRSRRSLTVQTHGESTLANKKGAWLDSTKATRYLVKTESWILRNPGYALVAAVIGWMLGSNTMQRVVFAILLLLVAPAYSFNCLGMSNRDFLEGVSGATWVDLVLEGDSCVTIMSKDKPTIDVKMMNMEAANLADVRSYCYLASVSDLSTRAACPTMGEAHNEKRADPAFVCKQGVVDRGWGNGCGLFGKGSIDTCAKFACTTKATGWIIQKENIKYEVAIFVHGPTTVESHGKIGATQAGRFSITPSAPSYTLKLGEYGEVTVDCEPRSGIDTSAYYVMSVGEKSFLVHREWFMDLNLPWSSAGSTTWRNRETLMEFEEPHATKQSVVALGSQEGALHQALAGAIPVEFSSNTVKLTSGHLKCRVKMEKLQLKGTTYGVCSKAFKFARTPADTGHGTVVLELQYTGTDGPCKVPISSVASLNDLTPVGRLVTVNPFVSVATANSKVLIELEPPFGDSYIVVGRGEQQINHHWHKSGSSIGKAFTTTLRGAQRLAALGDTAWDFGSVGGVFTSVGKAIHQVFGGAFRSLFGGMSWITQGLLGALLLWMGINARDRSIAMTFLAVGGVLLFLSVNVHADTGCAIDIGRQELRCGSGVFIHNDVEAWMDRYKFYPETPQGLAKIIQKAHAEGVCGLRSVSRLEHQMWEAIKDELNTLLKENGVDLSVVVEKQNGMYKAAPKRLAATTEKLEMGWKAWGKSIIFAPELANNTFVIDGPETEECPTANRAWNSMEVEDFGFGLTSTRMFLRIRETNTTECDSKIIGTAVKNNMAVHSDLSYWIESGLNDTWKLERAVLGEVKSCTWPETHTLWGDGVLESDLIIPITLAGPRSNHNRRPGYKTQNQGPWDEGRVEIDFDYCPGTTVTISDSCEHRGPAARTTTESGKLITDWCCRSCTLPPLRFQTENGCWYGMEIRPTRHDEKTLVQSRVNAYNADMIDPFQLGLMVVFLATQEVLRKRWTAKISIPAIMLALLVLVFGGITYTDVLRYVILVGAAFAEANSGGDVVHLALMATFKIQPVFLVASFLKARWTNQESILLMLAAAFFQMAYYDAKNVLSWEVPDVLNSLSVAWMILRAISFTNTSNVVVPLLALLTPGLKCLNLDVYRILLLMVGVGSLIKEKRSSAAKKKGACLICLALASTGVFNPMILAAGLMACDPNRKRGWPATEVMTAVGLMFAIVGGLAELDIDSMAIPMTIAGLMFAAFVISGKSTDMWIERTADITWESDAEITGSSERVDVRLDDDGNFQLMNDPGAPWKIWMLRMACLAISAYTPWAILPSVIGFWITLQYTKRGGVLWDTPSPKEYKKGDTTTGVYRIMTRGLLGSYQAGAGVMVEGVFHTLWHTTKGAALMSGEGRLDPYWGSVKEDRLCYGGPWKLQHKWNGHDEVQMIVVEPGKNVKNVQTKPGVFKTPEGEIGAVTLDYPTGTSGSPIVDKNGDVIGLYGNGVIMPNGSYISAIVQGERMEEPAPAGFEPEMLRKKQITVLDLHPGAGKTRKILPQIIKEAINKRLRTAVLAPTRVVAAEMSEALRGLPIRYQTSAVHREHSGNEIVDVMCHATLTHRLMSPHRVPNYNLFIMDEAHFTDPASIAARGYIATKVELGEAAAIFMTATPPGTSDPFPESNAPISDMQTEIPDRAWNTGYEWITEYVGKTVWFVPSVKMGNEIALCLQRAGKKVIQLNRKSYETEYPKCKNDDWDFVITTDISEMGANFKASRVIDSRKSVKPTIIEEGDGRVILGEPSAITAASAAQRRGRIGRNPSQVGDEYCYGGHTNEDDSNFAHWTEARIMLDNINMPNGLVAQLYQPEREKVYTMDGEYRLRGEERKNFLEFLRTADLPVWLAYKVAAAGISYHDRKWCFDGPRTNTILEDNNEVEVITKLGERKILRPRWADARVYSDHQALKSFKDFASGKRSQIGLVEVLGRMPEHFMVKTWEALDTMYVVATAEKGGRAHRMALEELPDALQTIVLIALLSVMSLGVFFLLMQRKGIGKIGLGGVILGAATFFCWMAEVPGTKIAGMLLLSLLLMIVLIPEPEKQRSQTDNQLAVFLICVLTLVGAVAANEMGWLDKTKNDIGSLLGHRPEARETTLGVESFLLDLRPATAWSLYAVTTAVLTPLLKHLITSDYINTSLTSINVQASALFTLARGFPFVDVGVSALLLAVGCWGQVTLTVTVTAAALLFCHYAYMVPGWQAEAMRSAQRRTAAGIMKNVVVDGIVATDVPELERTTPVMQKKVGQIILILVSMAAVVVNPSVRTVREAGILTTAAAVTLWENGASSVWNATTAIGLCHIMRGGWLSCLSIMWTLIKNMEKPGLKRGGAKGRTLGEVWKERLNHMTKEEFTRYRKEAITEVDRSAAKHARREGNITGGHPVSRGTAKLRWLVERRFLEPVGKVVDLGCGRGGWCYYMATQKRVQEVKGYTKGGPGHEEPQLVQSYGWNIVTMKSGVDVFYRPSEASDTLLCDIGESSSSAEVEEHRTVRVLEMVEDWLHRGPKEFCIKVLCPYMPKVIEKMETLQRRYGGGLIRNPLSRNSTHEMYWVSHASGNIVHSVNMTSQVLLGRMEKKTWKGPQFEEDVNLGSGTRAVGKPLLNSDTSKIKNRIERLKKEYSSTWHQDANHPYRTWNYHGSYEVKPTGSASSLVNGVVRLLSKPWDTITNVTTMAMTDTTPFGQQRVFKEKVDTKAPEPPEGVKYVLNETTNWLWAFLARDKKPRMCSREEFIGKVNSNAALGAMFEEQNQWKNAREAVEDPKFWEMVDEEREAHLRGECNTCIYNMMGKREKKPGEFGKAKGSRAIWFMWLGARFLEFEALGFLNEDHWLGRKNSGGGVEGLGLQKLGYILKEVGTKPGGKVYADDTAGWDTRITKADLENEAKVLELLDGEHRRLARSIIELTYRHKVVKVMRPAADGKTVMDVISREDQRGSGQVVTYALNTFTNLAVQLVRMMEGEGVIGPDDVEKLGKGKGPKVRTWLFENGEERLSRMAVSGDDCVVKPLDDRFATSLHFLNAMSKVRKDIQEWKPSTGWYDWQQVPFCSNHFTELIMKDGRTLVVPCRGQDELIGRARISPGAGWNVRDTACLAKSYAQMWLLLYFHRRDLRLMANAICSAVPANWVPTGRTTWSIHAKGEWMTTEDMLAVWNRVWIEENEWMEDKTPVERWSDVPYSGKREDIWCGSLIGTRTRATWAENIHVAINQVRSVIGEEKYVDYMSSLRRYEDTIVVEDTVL

CCCCCC(=O)N[C@H](C(=O)NCc1ccc(N)nc1)c1ccc(OCc2ccccc2)cc1.O=C(O)C(F)(F)F ... 37.8%

Exercise: Look up inhibition with Genome polyprotein (West Nile virus) (UniProt P06935) for this compound: "CCCCCC(=O)N[C@H](C(=O)NCc1ccc(NC(=N)N)cc1)c1ccc(OCc2ccccc2)cc1.O=C(O)C(F)(F)F"
Key: 102%

Exercise: Look up inhibition with Genome polyprotein (West Nile virus) (UniProt P06935) for this compound: "CCCCCC(=O)N[C@H](C(=O)NCc1ccc(NC(=N)N)nc1)c1ccc(OCc2ccccc2)cc1.O=C(O)C(F)(F)F"
Key: 96.8%

Exercise: Look up inhibition with Genome polyprotein (West Nile virus) (UniProt P06935) for this compound: "N=C(N)Nc1ccc(CNC(=O)[C@@H](NC(=O)c2ccc(OC3CCCCC3)cc2)c2ccc(OCc3ccccc3)cc2)cc1.O=C(O)C(F)(F)F"
Key: 99.7%
